B1: LINE1-full (parent)
chain: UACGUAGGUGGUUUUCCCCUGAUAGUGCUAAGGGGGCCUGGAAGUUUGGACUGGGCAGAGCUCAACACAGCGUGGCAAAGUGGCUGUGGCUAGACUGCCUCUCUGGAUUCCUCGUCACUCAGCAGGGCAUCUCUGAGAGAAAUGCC

# Variants of: B1
# PROCEDURE_DETAILS: self-cleavage, relative activity (ratio to wild type); higher = more cleavage; in vitro, sequencing; the parent is a self-cleaving ribozyme
# self-cleavage listing for each entry below
Provide a numeric answer; units are not to be included.

Example entries begin here.
- QUERY_SEQUENCE: "UACGUAGGUGGUUUUCCCCUGAUAGUGCUAAGGGGGCCUGGAAGUUUUGACUGGGCAGAGCUCAACACAGCGUGGCAAAGUGGCUGUGGCUAGACUGCCUCUCUGGAUUCCUCGUCACUCAGCAAGGCAUCUCUGAGAGAAAUGCC [G48U G125A]"
  READING: 1.17
- QUERY_SEQUENCE: "UACGUAGGUGGUUUUCCCCUGAUAGUGCUAAGGGGGCCUGGAAGUUUGGACUGGGCAGAGCUCAACACAGCGUGGCGAAGUGGCUGUGGCUAGACUGCCUCUCUGGAUUCCUCGUCACUCAGCAGGGCAUCUCUGAGAGAGAUGCC [A77G A141G]"
  READING: 2.25
- QUERY_SEQUENCE: "UACGUAGGUGGUUUUCCCCUGAUAGUGCUAAGGGGGCCUGGAAGUUUUGACUGGGCAGAGCUCAACACAGCGUGGCAAAGUGGCUGUGGCUAGACUGCCUCUCUGGAUUCCUCGUCACUCAGCAGGGCAUCCCUGAGAGAAAUGCC [G48U U132C]"
  READING: 1.12
- QUERY_SEQUENCE: "UACGUAGGUGGUUUUCCCCUGAUAGUGCUAAGGGGGCUUGGAAGUUUGGACUGGGCAGAGCUCAACACAGCGUGGCAAAGUGGCUGUGGCUAGACCGCCUCUCUGGAUUCCUCGUCACUCAGCAGGGCAUCUCUGAGAGAAAUGCC [C38U U96C]"
  READING: 0.17
- QUERY_SEQUENCE: "UACGUAGGUGGUUUUCCCCUGAUAGUGCUAAGGGGGCCUGGAAGUAUGGACUGGGCAGAGCUCAACACAGCGUGGCAAAGUGGCUGUGGCUAGACUGCCUCUCUGGAUUCCUCGUCACUCAGCAGGGCAUCUCGGAGAGAAAUGCC [U46A U134G]"
  READING: 0.84

Asked: Field request: self-cleavage | item: UACGUAGGUGGUUUUCCCCUGAUAGUGCUAAGGGGGCCUGGAAGUUUGGACUGGGCAGAGCUCAACACAGCGUGGCAGAGUGGCUGUGGCUAGACUGCCUCUCUGGAUUCCUCGUCACUCAGCAGGGCACCUCUGAGAGAAAUGCC [A78G U130C]
Given back: 1.29

Asked: Param item = UACGUAGGUGGUUUUCCCCUGAUAGUGCUAACGGGGCCUGGAAGUUUGGACUGGGCAGAGCUCAACACAGCGUGGCAGAGUGGCUGUGGCUAGACUGCCUCUCUGGAUUCCUCGUCACUCAGCAGGGCAUCUCUGAGAGAAAUGCC [G32C A78G] ; retrieve measured self-cleavage.
Given back: 0.73

Asked: Reported self-cleavage for UACGUAGGUGGUUUUCCCCUGAUAGUGUUAAGGGGGCCUGGAAGUUGGGACUGGGCAGAGCUCAACACAGCGUGGCAAAGUGGCUGUGGCUAGACUGCCUCUCUGGAUUCCUCGUCACUCAGCAGGGCAUCUCUGAGAGAAAUGCC [C28U U47G] : what is it?
Given back: 0.7

Asked: Given UACGUAGGUGGGUUUCCCCUGAUAGUGCUAAGGGGGCCUGGAAGUUUGGACUGGGCAGAGCUCAACACAACGUGGCAAAGUGGCUGUGGCUAGACUGCCUCUCUGGAUUCCUCGUCACUCAGCAGGGCAUCUCUGAGAGAAAUGCC [U12G G70A] , state its recorded self-cleavage.
Given back: 0.07

Asked: Fill in: self-cleavage of UACGUAGGUGGUUUUCCCCUGAUAGUGCUAAGGGGUCCUGGAAGUUUGGACAGGGCAGAGCUCAACACAGCGUGGCAAAGUGGCUGUGGCUAGACUGCCUCUCUGGAUUCCUCGUCACUCAGCAGGGCAUCUCUGAGAGAAAUGCC [G36U U52A] is ___
Given back: 0.64

Asked: // self-cleavage lookup, key: UACGUAGGUGGUUUUCCCCUGAUAGUGCUAAGGGGGCCUGGAAGUUUGCACUGGGCAGAGCUCAACACAGCGUGGCAAAGUGGCUGUGGCUAGACUGCCUCUCUGGAUUCCUCGUCACUCAGCAGGGCACCUCUGAGAGAAAUGCC [G49C U130C]
Given back: 1.67

Asked: Looking for the measured self-cleavage of UACGUAGGUGGUUUUCCCCUGAUAGUGCUAAGGGGGCCUGGAAGCUUGGACUGGGCAGAGCUCAACACAGCGUGGCAAACUGGCUGUGGCUAGACUGCCUCUCUGGAUUCCUCGUCACUCAGCAGGGCAUCUCUGAGAGAAAUGCC [U45C G80C] , can you help?
Given back: 1.8

Asked: For UACGUAGGUGGUAUUCCCCUGAUAGUGCUAAGGGGGCCUGGAAGUUUGGACUGGGCAGAGCUCAACACAGCGUGGCAAAGUGGCUGUGGCUAGACUGCCUCUCUGGAUUCCUCGUCACUCAGCAGAGCAUCUCUGAGAGAAAUGCC [U13A G126A] , what is its reported self-cleavage?
Given back: 1.08

Asked: Look up self-cleavage: UACGUAGGUGGUUUUCCCCUGAUAGUGCUAAGGGGCCCUGGAAGUUUGGACUGGGCAGAGCUCAACACAGCGUGGCAAAGUGGCUGCGGCUAGACUGCCUCUCUGGAUUCCUCGUCACUCAGCAGGGCAUCUCUGAGAGAAAUGCC [G36C U87C]
Given back: 0.25

Asked: Given UACGUAGGUAGUUUUCCCCUGAUAGUGCUAAGGGGGCCUGGAAGUUUGGACUGGGCAGAGCUCAACACAGCGUGGCAAAGUGGCUGUGGCUAGACUGCCCCUCUGGAUUCCUCGUCACUCAGCAGGGCAUCUCUGAGAGAAAUGCC [G10A U100C] , state its recorded self-cleavage.
Given back: 0.49

Asked: Can you share its self-cleavage? I mean this variant: UACGUAGGUGGUUUUCCCCUGAUGGUGCUAAGGGGGCCUGGAAGUUUGGACUGGGCAGUGCUCAACACAGCGUGGCAAAGUGGCUGUGGCUAGACUGCCUCUCUGGAUUCCUCGUCACUCAGCAGGGCAUCUCUGAGAGAAAUGCC [A24G A59U]
Given back: 1.17

Asked: Need self-cleavage, item UACGUAGGUGGUUUUCCCCUGAUAGUGCUAAGGGGGCCUGGAAGUUUGGACUGGGCAGAGCUCAACACAGCGUGGCAAAGUGGCUGUGGCUAGCCCGCCUCUCUGGAUUCCUCGUCACUCAGCAGGGCAUCUCUGAGAGAAAUGCC [A94C U96C]
Given back: 0.18

Asked: Query: self-cleavage; subject: UACGUAGGUGGUUUUCCCCUGAUAGUGCUAAAGGGGCCUGGAAGUUUGGACUGGGCAGAGCUCAACACAGCGUGCCAAAGUGGCUGUGGCUAGACUGCCUCUCUGGAUUCCUCGUCACUCAGCAGGGCAUCUCUGAGAGAAAUGCC [G32A G75C]
Given back: 0.65

Asked: Item UACGUAGGUGGUUUUCCCCUGAUAGUGCUAAGGGGGCCUGGAAGUUUGGACUGGGCAGAGCUCAACACAGCGUGGAAAAGUGGCUGUGGCUAGACUGCCUCUCUGGAUUCCUCGUCACUCAGCAGGGCAUCUCUGGGAGAAAUGCC [C76A A136G] has what recorded self-cleavage?
Given back: 1.79

Asked: Fill in: self-cleavage of UACGUAGGUGGUUUUCCCCUGAUAGUGCUAAGGGGGCCUGGAAGUUUGGACUGGGCAGAGCUCAACACAGCGUGUCAAAGUGGCUGUGGCUAGACUGCCUCUCUGGAUUCCUCGUCACUCAGCAGGGCAUCUCUGAGAAAAAUGCC [G75U G139A] is ___
Given back: 0.89
